Target: T1, VACV D8 protein (vaccinia virus, UniProt P04195 1-261)
T1 sequence: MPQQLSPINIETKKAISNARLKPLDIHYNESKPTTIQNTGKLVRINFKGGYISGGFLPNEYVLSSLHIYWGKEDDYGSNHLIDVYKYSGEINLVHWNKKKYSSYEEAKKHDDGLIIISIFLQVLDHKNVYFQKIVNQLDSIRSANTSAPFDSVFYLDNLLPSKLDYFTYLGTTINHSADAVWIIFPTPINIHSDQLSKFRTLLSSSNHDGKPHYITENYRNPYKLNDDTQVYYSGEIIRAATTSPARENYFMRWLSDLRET
Assay: cell-based or functional assay
Test readout: PRNT Emax, VACV MV+C' (%)
Please reply with the bare figure in % and do not write the unit itself.

Example cases with answers are listed next.
>>> data_value("VACV-136 (antibody, V domains shown, human IgG1, anti-D8) V domain 1: QVTLKESGPVLVNPTETLTLTCTVSGFSLSNARMRVSWIRQPPGKALEWLAHIFSNDEKSYSTSLKSRLTISKDTSKSQVVLTMTNMDPVDTASYYCARMRGEYNSYYFDSWGQGTLVTVS V domain 2: SYELTQPPSVSVSPGQTARITCSGDALPNQYAYWYQQKPGQAPVLVIYKDSERPSGIPERFSGSSSGTTVTLTISGVQAEDEADYYCQSADSSGTSVVFGGGTQVTV")
84
>>> data_value("VACV-128 (antibody, V domains shown, human IgG1, anti-D8) VH: EVQLVQSGAEVKKPGATVKISCKVSGYTFTDYYMHWVQQAPGKGLKWMGLLDPLDGETIYSEKFQGKVTITADTSTDTAYMELSSLRSEDTAVYYCARELTGYLNYWGQGTLVTVSS VL: DIQMTQSPSSLSASVGDRVTITCRASPGICNYLAWYQHKPGKVPKLLIYAASTLQSGVPSRFTGVGSGTNFTLTINNLPPENVATYYCQKYNSAPHTFGQGTKVDIK")
86

Task: Using the record for VACV-304 (antibody, V domains shown, human IgG1, anti-D8) VH: EVQLVESGGGLVQPGGSLRLSCVVSGFTFSNYWMSWVRQAPGKGLEWVANIKQDGSKKYYVDSVTGRFTISRDNAKNSLYLQMNSLRAEDTAVYYCATLNLELAVDAISEALKWGQGTLVTVSS VL: SYELTQPPSVSVSPGQTARITCSGDALPKQFAYWYQQKPGQAPVVMIYKDSERPSGIPERFSGSSSGTTVTLTISGVQAEDEADYYCQSVDNSGTYEVFGGGTQLTVL , state its measured PRNT Emax, VACV MV+C'.
Result: 69
